tested on: ISC-enriched organoids; experiment: Primary screen, 384-well 2.5-D organoid differentiation (ENR+CD, 6 days): carbachol-induced lysozyme secretion (LYZ.S); assay type: cell-based, murine; settings: Dose 0.40 uM; primary screen, FC vs plate median
experimentalEndpoint: Dose.FC.LYZ.S (log 2 fold change)
Answers are plain numbers, in log 2 fold change.

compound	experimentalEndpoint	quantityUnit	observed
CC(C)(C)n1nc(-c2ccc(Cl)cc2)c2c(N)ncnc21 [PP2]	Dose.FC.LYZ.S	log 2 fold change	0.145

Below are 2 compounds. Give each one its Dose.FC.LYZ.S.
1. Cc1cc(SCc2sc(-c3ccc(C(F)(F)F)c(F)c3)nc2C)ccc1OCC(=O)O [GW0742]
2. O=C(O)CNC(=O)c1c(O)c2ccccc2n(Cc2ccccc2)c1=O [IOX2]

## Result
1. 0.106
2. 0.071

Source of measurements: patent US20230398130A1
